- ASSAYED_SYSTEM: Escherichia coli BPL (Escherichia coli)
- Construct: the plasmid pHBA, which contains the entire coding region for E. coli BirA
- Sequence (P06709 whole entry): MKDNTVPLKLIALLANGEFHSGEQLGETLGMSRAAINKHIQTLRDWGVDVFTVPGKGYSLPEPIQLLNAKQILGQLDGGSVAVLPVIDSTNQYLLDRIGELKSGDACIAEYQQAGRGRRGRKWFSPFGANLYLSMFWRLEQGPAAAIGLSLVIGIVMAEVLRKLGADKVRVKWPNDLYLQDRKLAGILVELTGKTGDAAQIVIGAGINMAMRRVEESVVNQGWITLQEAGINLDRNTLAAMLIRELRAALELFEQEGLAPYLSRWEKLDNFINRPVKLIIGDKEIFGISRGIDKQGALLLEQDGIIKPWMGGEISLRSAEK
- TEST_NAME: In vitro biotinylation assay of E. coli BPL
- Method: Purified hPC-108 was analysed in an in vitro biotinylation assay using recombinant human BPL as follows: BPL activity was assayed by measuring the incorporation of [^3H]biotin into biotin domain. […] After air-drying, the filters were washed twice in 10% ice cold trichloroacetic acid and once in ethanol, dried and the acid insoluble radioactivity measured. […]
MEASURED_QUANTITY: IC50 (nM)
The answer is to be given in nM; state only the numeric part.

Request: Name the recorded IC50 of the molecule listed here: `C=CCC(Cc1cc(OC)cc(OC)c1)(C(=O)O)C(=O)O`
Result: 0.9
